# measured on: Albumin (Bos taurus) (UniProt P02769)
# Sequence (P02769 whole entry, looked up): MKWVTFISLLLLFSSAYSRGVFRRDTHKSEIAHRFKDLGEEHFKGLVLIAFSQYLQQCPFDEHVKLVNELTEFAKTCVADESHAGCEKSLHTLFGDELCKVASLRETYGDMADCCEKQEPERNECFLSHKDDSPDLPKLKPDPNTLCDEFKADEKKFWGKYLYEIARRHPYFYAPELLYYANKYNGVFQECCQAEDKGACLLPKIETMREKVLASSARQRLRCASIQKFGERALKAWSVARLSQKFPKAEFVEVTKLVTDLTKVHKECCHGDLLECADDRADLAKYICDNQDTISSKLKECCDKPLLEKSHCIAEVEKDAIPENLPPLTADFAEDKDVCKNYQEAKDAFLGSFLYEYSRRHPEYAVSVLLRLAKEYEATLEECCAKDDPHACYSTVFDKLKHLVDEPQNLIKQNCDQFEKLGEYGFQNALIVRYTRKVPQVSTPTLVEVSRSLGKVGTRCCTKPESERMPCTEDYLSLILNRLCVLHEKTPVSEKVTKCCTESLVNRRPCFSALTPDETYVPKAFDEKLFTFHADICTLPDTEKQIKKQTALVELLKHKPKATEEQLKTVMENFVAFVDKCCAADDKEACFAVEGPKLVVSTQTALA
# method summary: bovine serum albumin binders on microarray, profiling panel, artefact control for SMM control protein annotation, biochemical, small-molecule microarray, Alexa647 label, 635/667 nm fluorescence (AID 1118);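 further: score merges 667 nm emission intensity and signal-to-noise per printed compound spot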
# experimental context: BSA-A647 binding, fluorescence 635 nm, higher = more signal
property name: composite z-score

>  <molecule>
COCCOC(=O)N1C(=O)[C@@]2(c3cc(C#CCNC(N)=O)ccc31)[C@H](c1ccc(OCCO)cc1)N1[C@H](c3ccccc3)[C@H](c3ccccc3)OC(=O)[C@H]1[C@@H]2C(=O)N1CCc2cc(OC)c(OC)cc2C1

>  <property name>
composite z-score

>  <reported measurement>
-1.03

$$$$
>  <molecule>
COc1ccc(CCNC(=O)[C@@]2(c3ccc([N+](=O)[O-])cc3)CC(=O)N(CC34CC5CC(CC(C5)C3)C4)[C@@H]2c2ccc(CO)cc2)cc1

>  <property name>
composite z-score

>  <reported measurement>
-0.191

$$$$
>  <molecule>
O=C1C=CC(=O)[C@@H]2CC(COc3ccccc3)=C3[C@@H](CCc4ccccc4)OB(O)C[C@@H]3[C@H]12

>  <property name>
composite z-score

>  <reported measurement>
-0.182

$$$$
>  <molecule>
COc1ccc(C#Cc2ccc3c(c2)[C@]2(C(=O)N3)[C@H](C(=O)NC[C@H](O)c3ccccc3)[C@H]3C(=O)O[C@H](c4ccccc4)[C@H](c4ccccc4)N3[C@@H]2c2ccc(OCCO)cc2)cc1

>  <property name>
composite z-score

>  <reported measurement>
0.265

$$$$
>  <molecule>
CCCCC=C[C@@H](NC(=O)c1ccco1)c1ccccc1

>  <property name>
composite z-score

>  <reported measurement>
0.844

$$$$
>  <molecule>
O=C/C=C/c1ccc(Cl)cc1

>  <property name>
composite z-score

>  <reported measurement>
-1.04

$$$$
>  <molecule>
COCC(=C=CC[C@H](O)c1ccc(OCCO)cc1)C[C@H](O)c1cc(Cl)cc(Cl)c1O

>  <property name>
composite z-score

>  <reported measurement>
-0.679

$$$$
>  <molecule>
CC1=C2[C@@H](CCc3ccccc3)OB(O)C[C@@H]2n2c(=O)n(-c3ccccc3)c(=O)n2C1

>  <property name>
composite z-score

>  <reported measurement>
0.201

$$$$
>  <molecule>
CC(=CC1CCCCC1)[C@@H](NC(=O)c1ccc(C(F)(F)F)cc1)c1ccc(-c2ccccc2)cc1

>  <property name>
composite z-score

>  <reported measurement>
0.938

$$$$
>  <molecule>
C=CC[C@@]1(C(=O)N2CCOCC2)N=C(c2ccc(OCCCO)cc2)O[C@@H]1c1ccccc1N=[N+]=[N-]

>  <property name>
composite z-score

>  <reported measurement>
0.872

$$$$
>  <molecule>
COc1ccc(C#Cc2ccc3c(c2)[C@]2(C(=O)N3)[C@H](c3ccc(O)cc3)N3[C@H](c4ccccc4)[C@H](c4ccccc4)OC(=O)[C@H]3[C@@H]2C(=O)N2CCCCCCC2)cc1

>  <property name>
composite z-score

>  <reported measurement>
0.814

$$$$
>  <molecule>
CCOC(=O)C[C@H]1[C@H](OC(=O)c2ccccc2-c2ccccc2)[C@@H](NC(=O)Cc2ccc(OC)cc2)c2cc(OCCCO)ccc2N1C(=O)c1ccccc1

>  <property name>
composite z-score

>  <reported measurement>
0.176

$$$$
>  <molecule>
CN(C)CCCNC(=O)[C@@]1(Cc2ccccc2I)c2ccccc2C(=O)N(Cc2ccccc2C(F)(F)F)[C@H]1c1ccc(CO)cc1

>  <property name>
composite z-score

>  <reported measurement>
-0.212

$$$$
>  <molecule>
Cc1ccc(S[C@]2(C(=O)NC3CC3)CC(=O)N(Cc3ccccc3)[C@@H]2c2ccc(CO)cc2)cc1

>  <property name>
composite z-score

>  <reported measurement>
0.391

$$$$
>  <molecule>
CCCC[C@@H]1C[C@H]1[C@@H](NC(=O)c1ccc(-c2ccccc2)cc1)c1ccc(-c2ccccc2)cc1

>  <property name>
composite z-score

>  <reported measurement>
-0.0732

$$$$
>  <molecule>
O=C1N(CCS(=O)(=O)c2ccccc2)Cc2ccccc2[C@H]2OC(c3ccc(OCCCO)cc3)=N[C@@]12CCS(=O)(=O)c1ccccc1

>  <property name>
composite z-score

>  <reported measurement>
-0.284

$$$$
>  <molecule>
CCCCC(O)C1C=CC2C(=O)N(C3CCCCC3)C(=O)C2N1Nc1ccc(OC)cc1 (stereo not drawn)

>  <property name>
composite z-score

>  <reported measurement>
0.739

$$$$
>  <molecule>
C=CCOC(=O)[C@H]1[C@@H]2C(=O)O[C@@H](c3ccccc3)[C@@H](c3ccccc3)N2[C@@H](c2ccc(OCCOC(=O)[C@@H]3C[C@@H]4C(=O)NCC(=O)N4[C@@H]3c3ccc(O)cc3)cc2)[C@]12C(=O)Nc1ccccc12

>  <property name>
composite z-score

>  <reported measurement>
0.212

$$$$
>  <molecule>
COCCOC(=O)N1C(=O)[C@@]2(c3cc(C#CCC(C(=O)OC)C(=O)OC)ccc31)[C@H](C(=O)N1CCCCCCC1)[C@H]1C(=O)O[C@H](c3ccccc3)[C@H](c3ccccc3)N1[C@@H]2c1ccc(OCCO)cc1

>  <property name>
composite z-score

>  <reported measurement>
0.786

$$$$
>  <molecule>
CC(C)C[C@@H]1NC(=O)[C@H]2C[C@@H](C(=O)NCCCCCCNC(=O)CS)[C@@H](c3cccc(OCCO)c3)N2C1=O

>  <property name>
composite z-score

>  <reported measurement>
-0.641

$$$$
>  <molecule>
CC(C)C(=C=CC[C@@H](O)c1ccccc1OCCO)C[C@@H](O)c1ccccn1

>  <property name>
composite z-score

>  <reported measurement>
0.0682

$$$$
>  <molecule>
O=C(CS)NCCCCCCNC(=O)[C@@H]1C[C@@H]2C(=O)N3CCC[C@H]3C(=O)N2[C@@H]1c1ccc(O)cc1

>  <property name>
composite z-score

>  <reported measurement>
-0.766

$$$$
>  <molecule>
CCCCCN1CC=CC23O[C@@H]4/C=C\CCCOC(=O)C4[C@H]2C(=O)N(CCCCCCO)[C@@H]3C1=O (stereo partly drawn)

>  <property name>
composite z-score

>  <reported measurement>
-0.0739

$$$$
>  <molecule>
CC(C)CNC(=O)[C@@H]1c2ccccc2C(=O)N(Cc2cc(C(F)(F)F)cc(C(F)(F)F)c2)[C@H]1c1ccc(CO)cc1

>  <property name>
composite z-score

>  <reported measurement>
-0.881

$$$$
>  <molecule>
COC(=O)[C@]1(Cc2ccccc2N=[N+]=[N-])N=C(c2ccc(OCCCO)cc2)O[C@@H]1c1ccccc1N=[N+]=[N-]

>  <property name>
composite z-score

>  <reported measurement>
0.308

$$$$
>  <molecule>
COc1cc2c(cc1OC)CN(C(=O)[C@@H]1[C@H]3C(=O)O[C@H](c4ccccc4)[C@H](c4ccccc4)N3[C@H](c3ccccc3OCCO)[C@@]13C(=O)Nc1ccc(C#CCNC(N)=O)cc13)CC2

>  <property name>
composite z-score

>  <reported measurement>
0.301

$$$$
>  <molecule>
COC(=O)c1ccc(C23CC2(C(NP(=O)(c2ccccc2)c2ccccc2)c2ccccc2)C3)cc1 (stereo not drawn)

>  <property name>
composite z-score

>  <reported measurement>
0.982

$$$$
>  <molecule>
CCOC(=O)C[C@H]1[C@H](OC(=O)Cc2ccc3c(c2)OCO3)[C@@H](NC(=O)c2ccc(-c3ccccc3)cc2)c2cc(OCCCO)ccc2N1C(=O)c1ccccc1

>  <property name>
composite z-score

>  <reported measurement>
0.731

$$$$
